Biological target: T1, mouse IL-2Rγ (mouse, UniProt P34902 23-263, limits assumed)
T1 construct: Recombinant mouse IL-2Rγ protein coated on the ELISA plate or immobilised on the CM5 chip; also called mo IL-2R
T1 sequence (looked up): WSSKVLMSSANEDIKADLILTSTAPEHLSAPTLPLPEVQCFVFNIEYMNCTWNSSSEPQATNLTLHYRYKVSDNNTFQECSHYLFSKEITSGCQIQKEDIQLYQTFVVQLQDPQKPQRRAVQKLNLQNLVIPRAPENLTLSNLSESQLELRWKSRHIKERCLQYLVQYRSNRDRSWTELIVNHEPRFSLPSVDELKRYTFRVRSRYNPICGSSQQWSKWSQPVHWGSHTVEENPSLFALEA
Assay: SPR off-rate ranking, periplasmic extract over immobilised mouse IL-2Rγ
Measure: koff
The reply should consist of the numeric value with the unit placed after it.

# Binder, Measure, Assay Value
rows = [
    ("FJ1427_P035MP07F11 (VHH, Tested as soluble VHH fragment in periplasmic extract (P.E.); also called Clone nr) VHH: QVQLVESGGGLVQAGGSLRLSCAASGRTLSRLAMGWFRQAPGKEREFVAVNSWGGDTFYADSVEGRFTYSRDNAKSAVYLQMNSLQPEDTAVYYCAAAPTSFATTAYSSSNSYAYWGQGTQVTVSS", "koff", "0.00757 s⁻¹"),
    ("FJ1427_P035MP07B12 (VHH, Tested as soluble VHH fragment in periplasmic extract (P.E.); also called Clone nr) VHH: EVQLVESGGGLVQAGGSLRLSCAASGRTLSRYAMGWFRQAPGKEREYVAIDSWGGDTFYADSVEGRFTFSRDNAKNEVYLQMNSLQPEDTAVYYCAGAPTSFATTAYSSSNSYRYWGQGTQVTVSS", "koff", "0.00766 s⁻¹"),
    ("FJ1427_P035MP07G11 (VHH, Tested as soluble VHH fragment in periplasmic extract (P.E.); also called Clone nr) VHH: QVQLQESGGGLVQAGGSLRLSCAASGRTLSRYAMGWFRQAPGKEREFVTANSWGGDTYYADSVQGRFTFSRDNAKNTVYLQMNSLQPEDTAVYYCAAAPTSFATTAYSSSNSYAYWGQGTQVTVSS", "koff", "0.099 s⁻¹"),
    ("FJ1427_P035MP07E11 (VHH, Tested as soluble VHH fragment in periplasmic extract (P.E.); also called Clone nr) VHH: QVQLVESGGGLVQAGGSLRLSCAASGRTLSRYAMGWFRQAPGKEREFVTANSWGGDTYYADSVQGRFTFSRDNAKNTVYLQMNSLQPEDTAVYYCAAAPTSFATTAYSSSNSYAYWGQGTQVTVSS", "koff", "0.109 s⁻¹"),
    ("FJ1427_P035MP07D12 (VHH, Tested as soluble VHH fragment in periplasmic extract (P.E.); also called Clone nr; 668) VHH: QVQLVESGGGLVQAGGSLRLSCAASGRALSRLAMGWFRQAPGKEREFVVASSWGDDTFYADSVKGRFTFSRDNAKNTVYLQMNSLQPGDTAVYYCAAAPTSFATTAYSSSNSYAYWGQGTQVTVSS", "koff", "0.0122 s⁻¹"),
]

Items follow; give koff for each.
1. FJ1427_P035MP07C12 (VHH, Tested as soluble VHH fragment in periplasmic extract (P.E.); also called Clone nr) VHH: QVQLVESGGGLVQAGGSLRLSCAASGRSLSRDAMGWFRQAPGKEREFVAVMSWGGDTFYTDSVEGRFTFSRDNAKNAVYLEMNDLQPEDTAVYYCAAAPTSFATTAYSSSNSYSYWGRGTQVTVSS
2. FJ1427_P035MP07E12 (VHH, Tested as soluble VHH fragment in periplasmic extract (P.E.); also called Clone nr) VHH: QVQLVESGGGLVQAGGSLRLSCAASGRTLSRYAMGWFRQAPGKEREFVTANSWGGDTYYTDSVEGRFTFSRDNAKNAVYLQMNSLQPEDTAVYYCAAAPTSFATTAYSSSNSYTYWGQGTQVTVSS
3. FJ1427_P035MP07F12 (VHH, Tested as soluble VHH fragment in periplasmic extract (P.E.); also called Clone nr; 670) VHH: EVQLVESGGGLVQAGDSLRLSCVASGRTLSRCAMGWFRKAPGKEREYVAISSWGGDTFYEDSVEGRFTFSRDNAKNTVYLQMNSLRPEDTAVYYCAAAPTSFATTAYSSSNSYAYWGQGTQVTVSS
4. FJ1427_P035MP07H11 (VHH, Tested as soluble VHH fragment in periplasmic extract (P.E.); also called Clone nr; 664) VHH: QVQLVESGGGLVQPGGSLRLSCAASGRTLSRYAMGWFRQAPGKDREFVAASSWGGDTFYADSVEGRFTFSRDNAENATYLQMNSLQPEDTAVYYCAAAPTSFATTAYSSSNSYGSWGQGTQVTVSS

Solution:
1: 0.0146 s⁻¹; 2: 0.0883 s⁻¹; 3: 0.00792 s⁻¹; 4: 0.066 s⁻¹

Cited source: patent US20240409645A1
